# Lookup of reported Binding to PGE2-Biotinamide (OD450) keyed by entry
methodDescription: Biotin-PGE2 ELISA (PGE2-biotinamide binding to captured IgG)
particulars: Biotin-PGE2 45 μM; IgG-containing COS7 media

{"molecule": "K7H: human anti-PGE2 antibody from PROfusion mRNA display; VH SEQ ID NO 21, VL SEQ ID NO 24 (antibody, V domains shown) VH: EVQLVQSGSELKKPGASVKVSCKASGYSFTEYGISWVRQAPGQGPEWMGCISPYNGKLHYAQKFLGRVTMTTDTSTNTAYMELRSLKSDDTAVYYCARGGFSSYDSSGYYYVTDHWGQGTLVTVSS VL: DIRLTQSPSSLPASVGDRVTITCRASQSISTYLNWYQQTPGKAPSLLIYAASSLQSGVPSRFSGSGSGTDFTLTISSLQPEDFATYYCQQSYSPPPTFGGGTKVEIKR", "Binding to PGE2-Biotinamide (OD450)": 0.24}
{"molecule": "K3A: human anti-PGE2 antibody from PROfusion mRNA display; VH SEQ ID NO 13, VL SEQ ID NO 17 (antibody, V domains shown) VH: EVQLVQSGAETKKPGASVEVSCKASGYSFTEYGISWVRQAPGQGPEWMGCISPYNGKLHYAQEFQGRVTMTTGTSTNTAYMELGSLRSDDTAVYYCARGGFSFYDSSGYYYVTDHWGQGTLVTVSS VL: DIRLTQSPSSLSASVGDRVTITCRASQSIGSYLNWYQQKSGKAPKLLIYAASKLQSGVPSRFSGSGFGTDFTLTISSLQPEDSATYYCQQSDTTPFTFGQGTKLEIKR", "Binding to PGE2-Biotinamide (OD450)": 0.58}
{"molecule": "K1B: human anti-PGE2 antibody from PROfusion mRNA display; VH SEQ ID NO 5, VL SEQ ID NO 9 (antibody, V domains shown) VH: EVQLVQSGAEVKRPGASVKVSCKTSGYTFTNYDINWVRLAPGQGLEWMGCMNPTTGKTGYAQKFQGRVTMTRDTTIATAYMELSRLTSEDTAVYYCARGRGYSPGYGVAYADYWGQGTLVTVSS VL: DIQLTQSPSSLPASVGDRVTITCRASQSISTYLNWYQQTPGKAPSLLIYAASSLQSGVPSRFSGSGSGTDFTLTISSLQPEDFATYYCQQSYSPPPTFGGGTKVEIKR", "Binding to PGE2-Biotinamide (OD450)": 0.88}
{"molecule": "L11: human anti-PGE2 antibody from PROfusion mRNA display; VH SEQ ID NO 25, VL SEQ ID NO 29 (antibody, V domains shown) VH: EVQLVQSGPELKKPGTSVKVSCKASGYTLTTYAMNWVRQAPGQGLEWMGWIDTSTGNPTYAPGFLGRFVFSLDTSLSTTYLQISSLKPDDTAVYYCARSSHTRPGDFWGQGTLVTVSS VL: QSGLTQPPSVSGTPGQRVTISCSGSESNVGTNSVNWYQQLPGAAPRLLIRGNSDRPSGVPDRFSASKSGTSASLAISRLQSEDEADYFCGACDGRLSGLYVFGTGTKVTVL", "Binding to PGE2-Biotinamide (OD450)": 0.07}
{"molecule": "L21: human anti-PGE2 antibody from PROfusion mRNA display; VH SEQ ID NO 33, VL SEQ ID NO 36 (antibody, V domains shown) VH: EVQLVQSGSELKKPGTSVKVSCKASGYTLTTYAMNWVRQAPGQGLEWMGWIGTSTGNPTYAQGFTGRFVFSLDTSVNTAHLQIYSLKAEDTALYYCARSSLTRPADYWGQGTLVTVSS VL: QSGLTQPPSVSGAPGQRVTISCFGSSSNIGAGYDVHWYQQLPGAAPKLLIFGNNNRPSGVPDRFSGSKSGTSASLAITGLQAEDEADYYCQSCDSSLSGAVFGTGTKVTVL", "Binding to PGE2-Biotinamide (OD450)": 0.46}

Recorded values, source patent US8624002B2.
